I'd appreciate it if you could supply IC50 values for the items below.
Molecular target: D(2) dopamine receptor (Rattus norvegicus)
Sequence (P61169 whole entry): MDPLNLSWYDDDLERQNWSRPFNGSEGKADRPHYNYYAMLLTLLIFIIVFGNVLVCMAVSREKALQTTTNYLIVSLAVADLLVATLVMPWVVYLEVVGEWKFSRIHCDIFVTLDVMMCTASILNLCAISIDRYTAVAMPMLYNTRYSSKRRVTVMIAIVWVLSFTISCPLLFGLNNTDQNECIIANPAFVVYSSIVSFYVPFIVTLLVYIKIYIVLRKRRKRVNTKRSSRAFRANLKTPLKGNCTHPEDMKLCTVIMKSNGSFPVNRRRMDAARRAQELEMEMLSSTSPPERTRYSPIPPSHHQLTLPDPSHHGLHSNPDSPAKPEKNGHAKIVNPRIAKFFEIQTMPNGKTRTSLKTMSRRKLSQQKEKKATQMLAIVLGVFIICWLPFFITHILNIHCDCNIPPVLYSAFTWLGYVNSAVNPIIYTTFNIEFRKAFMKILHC
Assay: Displacement of [3H]raclopride from dopamine D2 receptor in Wistar rat striatal membrane by liquid scintillation counting
Answers are plain numbers, in nM.

Guide cases for IC50, answers given:
[[record]]
compound = "COc1cc2c(cc1O)[C@@H](Cc1ccc(OC)c(Oc3ccc(C[C@H]4c5cc(O)c(OC)cc5CCN4C)cc3)c1)N(C)CC2"
readoutunits = "nM"
measured = 27

[[record]]
compound = "COc1ccc2cc1Oc1ccc(cc1)C[C@@H]1c3c(cc(OC)c(O)c3Oc3cc4c(cc3OC)CCN(C)[C@H]4C2)CCN1C (racemic)"
readoutunits = "nM"
measured = 66400

[[record]]
compound = "COc1cc2c3cc1Oc1c(O)c(OC)cc4c1[C@H](Cc1ccc(OC)c(c1)-c1cc(ccc1O)C(=O)[C@H]3N(C)CC2)N(C)CC4"
readoutunits = "nM"
measured = 2760

[[record]]
compound = "COc1ccc2cc1Oc1ccc(cc1)C[C@H]1c3cc(c(OC)cc3CCN1C)Oc1c(OC)c(OC)cc3c1[C@@H](C2)N(C)CC3"
readoutunits = "nM"
measured = 670


Now let's try a different one.
Query: For the compound "COc1ccc2cc1Oc1ccc(cc1)C[C@H]1c3c(cc(OC)c(OC)c3Oc3cc4c(cc3OC)CCN(C)[C@@H]4C2)CCN1C" , give its reported IC50.
Reply: 28400

---

Species on record: Rattus norvegicus
Test: Selectivity ratio of IC50 for dopamine D1 receptor in Wistar rat striatal membrane to IC50 for dopamine D2 receptor in Wistar rat striatal membrane
Assay type: cell membranes
assayEndpoint: Ratio IC50
One number for each entry.

# return Ratio IC50 for each item in the list
1. COc1cc2c(cc1OC)[C@@H](Cc1ccc(Oc3cc(C[C@H]4c5cc(OC)c(OC)cc5CCN4C)ccc3OC)cc1)N(C)CC2
2. COc1ccc2cc1Oc1ccc(cc1)C[C@H]1c3c(cc(OC)c(OC)c3Oc3cc4c(cc3OC)CCN(C)[C@@H]4C2)CCN1C
3. COc1cc2c3cc1Oc1c(O)c(OC)cc4c1[C@H](Cc1ccc(OC)c(c1)-c1cc(ccc1O)C(=O)[C@H]3N(C)CC2)N(C)CC4
4. COc1cc2c3cc1Oc1c(O)c(OC)cc4c1[C@@H](C(=O)c1ccc(O)c(c1)-c1cc(ccc1OC)C[C@H]3N(C)CC2)N(C)CC4
5. COc1cc2c(cc1O)[C@@H](Cc1ccc(O)c(Oc3ccc(C[C@H]4c5cc(O)c(OC)cc5CCN4C)cc3)c1)N(C)CC2
6. COc1cc2c(cc1O)[C@@H](Cc1ccc(OC)c(Oc3ccc(C[C@H]4c5cc(O)c(OC)cc5CCN4C)cc3)c1)N(C)CC2

Reply:
1. 3.9
2. 1.4
3. 4
4. 5.6
5. 3.5
6. 207

---

Species on record: Rattus norvegicus
Test: Selectivity ratio of IC50 for dopamine D1 receptor in Wistar rat striatal membrane to IC50 for dopamine D2 receptor in Wistar rat striatal membrane
Assay type: cell membranes
assayEndpoint: Ratio IC50

Solved cases (3 shown):
[[record]]
compound = "COc1ccc2cc1Oc1ccc(cc1)C[C@H]1c3cc(c(OC)cc3CCN1C)Oc1c(OC)c(OC)cc3c1[C@@H](C2)N(C)CC3"
assayendpoint = "Ratio IC50"
measured = 49.6

[[record]]
compound = "COc1ccc(C[C@H]2c3c(cc(OC)c4c3Oc3cc5c(cc3O4)CCN(C)C5=O)CCN2C)cc1-c1cc(C=O)ccc1O"
assayendpoint = "Ratio IC50"
measured = "> 1.2"

[[record]]
compound = "COc1ccc2cc1Oc1ccc(cc1)C[C@@H]1c3c(cc(OC)c(O)c3Oc3cc4c(cc3OC)CCN(C)[C@H]4C2)CCN1C (racemic)"
assayendpoint = "Ratio IC50"
measured = 0.2


Proceeding to the next compound to report its Ratio IC50.
Query: # return recorded Ratio IC50 for entry "COc1cc2c3cc1Oc1c(O)c(OC)cc4c1[C@H](Cc1ccc(OC)c(c1)-c1cc(ccc1O)C[C@H]3N(C)CC2)N(C)CC4"
Reply: 31.4

Source: ChEMBL document CHEMBL1149742
